Experiment notes: Cytotoxicity against human NCM460 cells assessed as inhibition rate of cell growth at 100 uM incubated for 24 hrs by CCK8 assay relative to control
Assay type: toxicity, cell-based
Value type: inhibition at 24 h, 100 µM (%)
Form entry: value (%) — number only.

COc1cc(C(C)C)c(Oc2cnc(NC(C)=O)nc2NC(C)=O)cc1I    18.2
COc1cc(C(C)C)c(Oc2cnc(N)nc2N)cc1-c1ccc(-c2ccccc2)cc1    66
CCCCOc1cc(C(C)C)c(Oc2cnc(N)nc2N)cc1-c1ccc(C(F)(F)F)cc1    42.3

Give me measured inhibition at 24 h, 100 µM, please, for this compound: COc1cc(C(C)C)c(Oc2cnc(N)nc2N)cc1C
57.3
